Measured MIC K. pneumoniae FADDI-KP032, listed per entry for reference.
Test system: K. pneumoniae FADDI-KP032
Assay type: cell-based, Klebsiella pneumoniae
testSettings: FADDI-KP032
Experimental: MICs were determined in cation-adjusted Mueller–Hinton broth (CaMHB) by the broth micro-dilution method against ATCC strains and clinical isolates. MICs in the presence of Survanta® were determined as described above against P. aeruginosa ATCC 27853. In the 100 μL of fresh CaMHB containing polymyxins, 10% Survanta® (v/v, 2.5 mg/mL phospholipids) was added. […]
Residues, ends and D or L forms follow the SMILES beside them.

{"columns": ["molecule", "resultModifier", "MIC K. pneumoniae FADDI-KP032, µg/mL"],
 "data": [
  ["CCCCCCCC(=O)N[C@@H](CCN)C(=O)N[C@H](C(=O)N[C@@H](CCN)C(=O)N[C@H]1CCNC(=O)[C@H]([C@@H](C)O)NC(=O)[C@H](CCN)NC(=O)[C@H](CCN)NC(=O)[C@H]([C@@H](C)O)NC(=O)[C@@H](Cc2ccccc2)NC(=O)[C@H](CCN)NC1=O)[C@@H](C)O [Lipopeptide F224] (HELM PEPTIDE1{[CCCCCCCC(=O)[*:2]].[Dab].T.[Dab].[Dab].[Dab].[dF].T.[Dab].[Dab].T}$PEPTIDE1,PEPTIDE1,5:R3-11:R2$$$V2.0)", "=", 0.5],
  ["CCCCCCCC(=O)N[C@@H](CCN)C(=O)N[C@H](C(=O)N[C@@H](CN)C(=O)N[C@H]1CCNC(=O)[C@H]([C@@H](C)O)NC(=O)[C@H](CCN)NC(=O)[C@H](CCN)NC(=O)[C@H](CC)NC(=O)[C@@H](CC(C)C)NC(=O)[C@H](CCN)NC1=O)[C@@H](C)O [Lipopeptide F287] (HELM PEPTIDE1{[CCCCCCCC(=O)[*:2]].[Dab].T.[NC[C@H](N[*:1])C(=O)[*:2]].[Dab].[Dab].[dL].[Abu].[Dab].[Dab].T}$PEPTIDE1,PEPTIDE1,5:R3-11:R2$$$V2.0)", "<", 0.125],
  ["CCCCCCCC(=O)N[C@@H](CCN)C(=O)N[C@H](C(=O)N[C@@H](CCN)C(=O)N[C@H]1CCNC(=O)[C@H]([C@@H](C)O)NC(=O)[C@H](CCN)NC(=O)[C@H](CCN)NC(=O)[C@H]([C@@H](C)O)NC(=O)[C@@H](CC(C)C)NC(=O)[C@H](CCN)NC1=O)[C@@H](C)O [Lipopeptide F100] (HELM PEPTIDE1{[CCCCCCCC(=O)[*:2]].[Dab].T.[Dab].[Dab].[Dab].[dL].T.[Dab].[Dab].T}$PEPTIDE1,PEPTIDE1,5:R3-11:R2$$$V2.0)", "=", 0.25],
  ["CC[C@@H]1NC(=O)[C@@H](CC(C)C)NC(=O)[C@H](CCN)NC(=O)[C@@H](NC(=O)[C@H](CN)NC(=O)[C@@H](NC(=O)[C@H](CCN)NC(=O)c2ccc(-c3ccccc3)cc2)[C@@H](C)O)CCNC(=O)[C@H]([C@@H](C)O)NC(=O)[C@H](CCN)NC(=O)[C@H](CCN)NC1=O [Lipopeptide F477] (HELM PEPTIDE1{[O=C(c1ccc(-c2ccccc2)cc1)[*:2]].[Dab].T.[NC[C@H](N[*:1])C(=O)[*:2]].[Dab].[Dab].[dL].[Abu].[Dab].[Dab].T}$PEPTIDE1,PEPTIDE1,5:R3-11:R2$$$V2.0)", "=", 0.25],
  ["CCCCCCCC(=O)N[C@@H](CCN)C(=O)N[C@H](C(=O)N[C@@H](CCCN)C(=O)N[C@H]1CCNC(=O)[C@H]([C@@H](C)O)NC(=O)[C@H](CCN)NC(=O)[C@H](CCN)NC(=O)[C@H]([C@@H](C)O)NC(=O)[C@@H](CC(C)C)NC(=O)[C@H](CCN)NC1=O)[C@@H](C)O [Lipopeptide F252] (HELM PEPTIDE1{[CCCCCCCC(=O)[*:2]].[Dab].T.[Orn].[Dab].[Dab].[dL].T.[Dab].[Dab].T}$PEPTIDE1,PEPTIDE1,5:R3-11:R2$$$V2.0)", "<", 0.125],
  ["CCCCCCCC(=O)N[C@@H](CCN)C(=O)N[C@H](C(=O)N[C@@H](CN)C(=O)N[C@H]1CCNC(=O)[C@H]([C@@H](C)O)NC(=O)[C@H](CCN)NC(=O)[C@H](CCN)NC(=O)[C@H](C)NC(=O)[C@@H](CC(C)C)NC(=O)[C@H](CCN)NC1=O)[C@@H](C)O [Lipopeptide F271] (HELM PEPTIDE1{[CCCCCCCC(=O)[*:2]].[Dab].T.[NC[C@H](N[*:1])C(=O)[*:2]].[Dab].[Dab].[dL].A.[Dab].[Dab].T}$PEPTIDE1,PEPTIDE1,5:R3-11:R2$$$V2.0)", "<", 0.125]
]}
